The measured values listed here are drawn from paper PMC6503470.

- measurement-protocol: Cytotoxicity, human kidney cells
- Format: cell-based
- condition-parameters: human, HEK293T cells (human kidney cells); read-out: half maximal cytotoxicity concentration (CC50), HEK293T
Hi there, I'd appreciate the recorded CC50 for every entry that follows.
Numbers only, in µg/mL.

1. O=c1oc2c(O)cc(Oc3ccc(-c4ccc(O)c(O)c4)cc3O)cc2c2c(O)c(O)ccc12 ... 4.5

Please look at the following compound next.
Given the entry `O=c1oc2cc(O)c(O)cc2c2cc(O)c(O)cc12` , report its measured CC50. 9.4

----------
- System: methicillin-resistant Staphylococcus aureus (MRSA, ATCC 33591)
- measurement-protocol: Antibacterial MIC assay, MRSA
- Format: cell-based
- condition-parameters: MIC90, at least 90% inhibition of growth; values expressed as 95% confidence interval
Hi there, I'd appreciate the recorded Minimal inhibitory concentration, MRSA for every entry that follows.
Answers are plain numbers, in µg/mL.

Sample answers from the record:
1) O=c1oc2c(O)cc(Oc3ccc(Oc4ccc(Oc5ccc(Oc6ccc(Oc7ccc(Oc8ccc(Oc9ccc(Oc%10ccc(-c%11ccc(O)c(O)c%11)cc%10O)cc9O)cc8O)cc7O)cc6O)cc5O)cc4O)cc3O)cc2c2cc(O)c(O)cc12 ... 25
2) Oc1ccc(Oc2ccc(Oc3ccc(Oc4ccc(Oc5ccc(Oc6ccc(Oc7ccc(Oc8ccc(-c9ccc(O)c(O)c9)cc8O)cc7O)cc6O)cc5O)cc4O)cc3O)cc2O)cc1O ... 1.4
3) O=c1oc2c(O)cc(Oc3ccc(-c4ccc(O)c(O)c4)cc3O)cc2c2c(O)c(O)ccc12 ... 13

Given the entry `O=c1oc2c(O)cc(Oc3ccc(Oc4ccc(Oc5ccc(Oc6ccc(Oc7ccc(Oc8ccc(Oc9ccc(-c%10ccc(O)c(O)c%10)cc9O)cc8O)cc7O)cc6O)cc5O)cc4O)cc3O)cc2c2cc(O)c(O)cc12` , report its measured Minimal inhibitory concentration, MRSA. 14

----------
- Tested on: amphotericin B-resistant C. albicans (ARCA, ATCC 90873)
- measurement-protocol: Antifungal MIC assay, amphotericin B-resistant C. albicans
- Assay type: cell-based
- condition-parameters: Candida albicans, ATCC90873; MIC90; values expressed as 95% confidence interval; read-out: Minimal inhibitory concentration, ARCA
Hi there, I'd appreciate the recorded MIC for every entry that follows.

1) O=c1oc2c(O)cc(Oc3ccc(-c4ccc(O)c(O)c4)cc3O)cc2c2c(O)c(O)ccc12 ... > 50 µg/mL

Could you tell me MIC for each of these compounds? They are listed below.
1. Oc1ccc(-c2ccc(O)c(O)c2)cc1O [compound 3, 3,4,3′,4′-tetrahydroxy-1,1′-biphenyl]
2. O=c1oc2c(O)cc(Oc3ccc(Oc4ccc(Oc5ccc(Oc6ccc(Oc7ccc(Oc8ccc(Oc9ccc(Oc%10ccc(-c%11ccc(O)c(O)c%11)cc%10O)cc9O)cc8O)cc7O)cc6O)cc5O)cc4O)cc3O)cc2c2cc(O)c(O)cc12

["> 50 µg/mL", "> 50 µg/mL"]

----------
Hi there, I'd appreciate the recorded EC50 for every entry that follows.
- System: P. falciparum strain Dd2L
- measurement-protocol: Parasite proliferation assay, asexual blood-stage P. falciparum, SYBR Green
- Assay type: cell-based
- condition-parameters: Plasmodium falciparum, asexual blood stages, 72 h, 95% confidence interval, read-out: Half-maximal effective concentration, P. falciparum

1) Oc1ccc(Oc2ccc(Oc3ccc(Oc4ccc(Oc5ccc(Oc6ccc(Oc7ccc(Oc8ccc(-c9ccc(O)c(O)c9)cc8O)cc7O)cc6O)cc5O)cc4O)cc3O)cc2O)cc1O [compound 6] ... > 2 µg/mL
2) O=c1oc2cc(O)c(O)cc2c2cc(O)c(O)cc12 [compound 4] ... 0.7 µg/mL
3) O=c1oc2c(O)cc(Oc3ccc(Oc4ccc(Oc5ccc(Oc6ccc(Oc7ccc(Oc8ccc(Oc9ccc(-c%10ccc(O)c(O)c%10)cc9O)cc8O)cc7O)cc6O)cc5O)cc4O)cc3O)cc2c2cc(O)c(O)cc12 [compound 9] ... > 2 µg/mL

Could you tell me EC50 for each of these molecules? They are listed below.
1. O=c1oc2c(O)cc(Oc3ccc(Oc4ccc(Oc5ccc(Oc6ccc(Oc7ccc(Oc8ccc(Oc9ccc(Oc%10ccc(Oc%11ccc(-c%12ccc(O)c(O)c%12)cc%11O)cc%10O)cc9O)cc8O)cc7O)cc6O)cc5O)cc4O)cc3O)cc2c2cc(O)c(O)cc12 [compound 10]
2. O=c1oc2c(O)cc(Oc3ccc(-c4ccc(O)c(O)c4)cc3O)cc2c2c(O)c(O)ccc12 [compound 5]
3. O=c1oc2c(O)cc(Oc3ccc(Oc4ccc(Oc5ccc(Oc6ccc(Oc7ccc(Oc8ccc(Oc9ccc(Oc%10ccc(-c%11ccc(O)c(O)c%11)cc%10O)cc9O)cc8O)cc7O)cc6O)cc5O)cc4O)cc3O)cc2c2cc(O)c(O)cc12 [compound 8]
4. Oc1ccc(Oc2ccc(Oc3ccc(Oc4ccc(Oc5ccc(Oc6ccc(Oc7ccc(Oc8ccc(Oc9ccc(-c%10ccc(O)c(O)c%10)cc9O)cc8O)cc7O)cc6O)cc5O)cc4O)cc3O)cc2O)cc1O [compound 7]

1. > 2 µg/mL
2. 1.9 µg/mL
3. > 2 µg/mL
4. > 2 µg/mL
